Where do these numbers come from? They come from patent US9625458B2.

- TARGET_OF_ASSAY: E. coli dipeptide binding protein variant D450C, fluorophore conjugate (Escherichia coli, UniProt P23847, D478C)
- Construct: initiator methionine (N); Gly-Ser-Gly-(His)n or Gly-Ser-(His)n (n = 5, 6 or 10) (C); made in house; host or cells: E. coli BL21-DE3
- Sequence (P23847 29-535 D478C): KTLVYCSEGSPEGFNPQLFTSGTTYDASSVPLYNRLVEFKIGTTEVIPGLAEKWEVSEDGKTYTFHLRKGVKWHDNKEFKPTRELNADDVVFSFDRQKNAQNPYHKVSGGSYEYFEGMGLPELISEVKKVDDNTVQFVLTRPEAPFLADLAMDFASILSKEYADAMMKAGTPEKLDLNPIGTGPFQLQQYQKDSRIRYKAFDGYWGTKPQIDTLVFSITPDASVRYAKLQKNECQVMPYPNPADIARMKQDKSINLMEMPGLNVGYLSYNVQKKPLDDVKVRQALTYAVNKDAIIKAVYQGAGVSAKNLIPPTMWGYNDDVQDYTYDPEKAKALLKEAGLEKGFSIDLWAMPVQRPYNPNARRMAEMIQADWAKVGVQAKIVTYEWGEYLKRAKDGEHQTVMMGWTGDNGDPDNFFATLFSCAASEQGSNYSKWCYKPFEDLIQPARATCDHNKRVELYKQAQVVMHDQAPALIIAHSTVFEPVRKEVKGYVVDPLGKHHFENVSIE
- TEST: Fluorimetric titration of fluorophore conjugates
- MEASUREMENT_CONTEXT: JPW4045 conjugate, peristeric site
pKd: −log10 of the molar value.
VALUE_KIND: pKd

                                   compound  value_kind  observed_measurement
0  CC(C)C[C@H](NC(=O)CN)C(=O)O [Gly-Leu, Gly-Leu dipeptide]         pKd                  5.70

----------
- TARGET_OF_ASSAY: E. coli dipeptide binding protein variant S111C, fluorophore conjugate (Escherichia coli, UniProt P23847, S139C)
- Construct: initiator methionine (N); Gly-Ser-Gly-(His)n or Gly-Ser-(His)n (n = 5, 6 or 10) (C); made in house; host or cells: E. coli BL21-DE3
- Sequence (P23847 29-535 S139C): as the sequence (P23847 29-535 D478C) above, with S111C, C450D counted along it
- TEST: Fluorimetric titration of fluorophore conjugates
- MEASUREMENT_CONTEXT: Acrylodan conjugate, peristeric site
VALUE_KIND: Kd (µM)

                                   compound  uom  observed_measurement
0  CC(C)C[C@H](NC(=O)CN)C(=O)O [Gly-Leu, Gly-Leu dipeptide]   µM                   4.8

----------
- TARGET_OF_ASSAY: E. coli ribose binding protein variant L236C, fluorophore conjugate (Escherichia coli, UniProt P02925, L261C)
- Construct: Gly-Ser-Gly-(His)n or Gly-Ser-(His)n, n=5, 6 or 10 (C); initiator methionine (N); made in house; host or cells: E. coli strain BL21-DE3
- Sequence (P02925 26-296 L261C): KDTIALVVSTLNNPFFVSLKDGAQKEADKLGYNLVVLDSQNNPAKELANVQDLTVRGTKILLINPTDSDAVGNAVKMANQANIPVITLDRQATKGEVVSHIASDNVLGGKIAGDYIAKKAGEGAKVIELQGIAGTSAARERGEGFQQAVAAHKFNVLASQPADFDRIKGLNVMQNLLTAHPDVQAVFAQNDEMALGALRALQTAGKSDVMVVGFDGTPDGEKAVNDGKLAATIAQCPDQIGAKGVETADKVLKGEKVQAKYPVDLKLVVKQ
- TEST: Fluorimetric titration of fluorophore conjugates
- MEASUREMENT_CONTEXT: NBD conjugate, ligand ribose
pKd: −log10 of the molar value.
VALUE_KIND: pKd

                                   compound  value_kind  observed_measurement
0  OC1OC[C@@H](O)[C@@H](O)[C@H]1O (stereo partly shown) [ribose]         pKd                  7.00

----------
- TARGET_OF_ASSAY: E. coli sulfate binding protein variant Q294C, fluorophore conjugate (Escherichia coli, UniProt P0AG78, Q313C)
- Construct: Gly-Ser-Gly-(His)n or Gly-Ser-(His)n, n=5, 6 or 10 (C); initiator methionine (N)
- Sequence (P0AG78 20-329 Q313C): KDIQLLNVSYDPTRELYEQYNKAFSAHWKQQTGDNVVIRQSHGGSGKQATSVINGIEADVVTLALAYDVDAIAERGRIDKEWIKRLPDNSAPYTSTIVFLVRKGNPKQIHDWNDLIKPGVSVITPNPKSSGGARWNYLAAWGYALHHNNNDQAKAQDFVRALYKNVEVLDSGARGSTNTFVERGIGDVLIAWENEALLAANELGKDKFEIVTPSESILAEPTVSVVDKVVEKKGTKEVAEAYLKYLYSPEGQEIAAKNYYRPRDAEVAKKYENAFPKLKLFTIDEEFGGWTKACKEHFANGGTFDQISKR
- TEST: Fluorimetric titration of fluorophore conjugates
- MEASUREMENT_CONTEXT: JPW4042 conjugate, ligand sulfate
VALUE_KIND: Kd (nM)

                compound  uom  observed_measurement
0  O=S(=O)(O)O [sulfate]   nM                   830

----------
- TARGET_OF_ASSAY: E. coli glucose binding protein variant W183C, fluorophore conjugate (Escherichia coli, UniProt P0AEE5, W206C)
- Sequence (P0AEE5 24-332 W206C limits assumed): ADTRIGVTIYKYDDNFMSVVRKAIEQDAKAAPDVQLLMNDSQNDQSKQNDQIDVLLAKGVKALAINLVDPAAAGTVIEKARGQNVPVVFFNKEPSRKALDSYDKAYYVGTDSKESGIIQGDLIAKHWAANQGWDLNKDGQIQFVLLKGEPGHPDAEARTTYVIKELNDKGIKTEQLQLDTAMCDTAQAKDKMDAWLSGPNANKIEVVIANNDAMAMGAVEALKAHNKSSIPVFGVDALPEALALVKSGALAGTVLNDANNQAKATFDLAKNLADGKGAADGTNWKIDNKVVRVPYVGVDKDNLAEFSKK
- TEST: biochemical
- MEASUREMENT_CONTEXT: Kd, Acrylodan conjugate; endosteric site
pKd: −log10 of the molar value.
VALUE_KIND: pKd

>>> df
                                   compound  value_kind  observed_measurement
0  OC[C@H]1OC(O)[C@H](O)[C@@H](O)[C@@H]1O (stereo partly shown) [glucose]         pKd                  2.22

----------
- TARGET_OF_ASSAY: E. coli arabinose binding protein variant C64A/L298C, fluorophore conjugate (Escherichia coli, UniProt P02924, C87A/L321C)
- Construct: initiator methionine (N); Gly-Ser-Gly-(His)n or Gly-Ser-(His)n (n = 5, 6 or 10) (C); made in house; host or cells: E. coli BL21-DE3
- Sequence (P02924 24-329 C87A/L321C): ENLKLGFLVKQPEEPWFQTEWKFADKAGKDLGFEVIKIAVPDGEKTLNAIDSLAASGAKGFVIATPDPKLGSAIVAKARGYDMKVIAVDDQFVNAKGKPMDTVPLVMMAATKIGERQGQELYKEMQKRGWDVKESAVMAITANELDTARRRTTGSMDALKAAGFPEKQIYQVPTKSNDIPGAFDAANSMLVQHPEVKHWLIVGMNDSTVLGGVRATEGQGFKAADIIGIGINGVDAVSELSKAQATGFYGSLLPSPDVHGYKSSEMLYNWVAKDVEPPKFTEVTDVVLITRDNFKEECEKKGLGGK
- TEST: Fluorimetric titration of fluorophore conjugates
- MEASUREMENT_CONTEXT: Acrylodan conjugate, allosteric site
pKd: −log10 of the molar value.
VALUE_KIND: pKd

>>> print(df.to_string())
                                   compound  observed_measurement
0  OC1OC[C@H](O)[C@H](O)[C@H]1O (stereo partly shown)                  4.36

----------
- TARGET_OF_ASSAY: E. coli sulfate binding protein variant L65C, fluorophore conjugate (Escherichia coli, UniProt P0AG78, L84C)
- Construct: Gly-Ser-Gly-(His)n or Gly-Ser-(His)n, n=5, 6 or 10 (C); initiator methionine (N)
- Sequence (P0AG78 20-329 L84C): as the sequence (P0AG78 20-329 Q313C) above, with L65C, C294Q counted along it
- TEST: Fluorimetric titration of fluorophore conjugates
- MEASUREMENT_CONTEXT: Fluorescein conjugate, ligand sulfate
- From the text: Molecular Cloning. […] Additionally the sequence of Fe(III) BP was mutated by substitution of Glu57 with Asp to raise the Kd to a concentration range conveniently measured using Fe(III) citrate. […] Fluorimetry. […] Fluorescence emission spectra were acquired with excitation and emission slit widths of 4 and 8 nm, respectively. […] Analyte affinity measurements. […] The emission wavelength monitored was that of maximum difference in intensity between the ligand-free and bound states.
pKd: −log10 of the molar value.
VALUE_KIND: pKd

>>> print(df.to_string())
                compound  value_kind  observed_measurement
0  O=S(=O)(O)O [sulfate]         pKd                  5.96

----------
- TARGET_OF_ASSAY: E. coli arabinose binding protein variant C64A/F23C, fluorophore conjugate (Escherichia coli, UniProt P02924, C87A/F46C)
- Construct: initiator methionine (N); Gly-Ser-Gly-(His)n or Gly-Ser-(His)n (n = 5, 6 or 10) (C); made in house; host or cells: E. coli BL21-DE3
- Sequence (P02924 24-329 F46C/C87A): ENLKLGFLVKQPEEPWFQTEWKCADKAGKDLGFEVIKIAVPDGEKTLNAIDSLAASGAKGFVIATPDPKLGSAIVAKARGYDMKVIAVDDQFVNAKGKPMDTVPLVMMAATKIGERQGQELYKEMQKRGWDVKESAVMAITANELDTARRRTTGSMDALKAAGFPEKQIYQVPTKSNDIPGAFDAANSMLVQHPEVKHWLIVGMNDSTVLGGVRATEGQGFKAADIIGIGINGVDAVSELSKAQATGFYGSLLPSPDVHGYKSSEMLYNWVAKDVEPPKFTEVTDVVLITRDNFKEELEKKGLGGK
- TEST: Fluorimetric titration of fluorophore conjugates
- MEASUREMENT_CONTEXT: Acrylodan conjugate, allosteric site
pKd: −log10 of the molar value.
VALUE_KIND: pKd

                                   compound  observed_measurement
0  OC1OC[C@H](O)[C@H](O)[C@H]1O (stereo partly shown)                  5.41

----------
- TARGET_OF_ASSAY: E. coli arabinose binding protein variant C64A/D257C (Escherichia coli, UniProt P02924, C87A/D280C)
- Construct: initiator methionine (N); Gly-Ser-Gly-(His)n or Gly-Ser-(His)n (n = 5, 6 or 10) (C)
- Sequence (P02924 24-329 C87A/D280C): as the sequence (P02924 24-329 C87A/L321C) above, with D257C, C298L counted along it
- TEST: Arabinose affinity by tryptophan fluorescence
VALUE_KIND: Kd

>>> df
                                   compound  observed_measurement
0  OC1OC[C@H](O)[C@H](O)[C@H]1O (stereo partly shown)                3.4 µM

----------
- TARGET_OF_ASSAY: E. coli dipeptide binding protein variant K394C, fluorophore conjugate (Escherichia coli, UniProt P23847, K422C)
- Construct: initiator methionine (N); Gly-Ser-Gly-(His)n or Gly-Ser-(His)n (n = 5, 6 or 10) (C); made in house; host or cells: E. coli BL21-DE3
- Sequence (P23847 29-535 K422C): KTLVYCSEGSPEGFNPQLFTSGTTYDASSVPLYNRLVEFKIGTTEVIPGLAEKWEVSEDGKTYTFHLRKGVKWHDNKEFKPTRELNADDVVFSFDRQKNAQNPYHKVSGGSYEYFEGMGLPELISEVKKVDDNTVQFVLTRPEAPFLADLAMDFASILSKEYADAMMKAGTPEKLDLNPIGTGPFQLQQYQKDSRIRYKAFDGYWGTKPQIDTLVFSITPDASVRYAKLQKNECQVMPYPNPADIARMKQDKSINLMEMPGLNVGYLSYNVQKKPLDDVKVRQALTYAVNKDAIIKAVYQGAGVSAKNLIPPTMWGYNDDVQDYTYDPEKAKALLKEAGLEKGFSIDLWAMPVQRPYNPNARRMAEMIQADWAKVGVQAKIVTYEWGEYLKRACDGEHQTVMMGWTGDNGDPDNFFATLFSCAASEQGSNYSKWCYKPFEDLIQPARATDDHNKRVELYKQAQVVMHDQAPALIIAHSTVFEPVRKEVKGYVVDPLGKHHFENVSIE
- TEST: Fluorimetric titration of fluorophore conjugates
- MEASUREMENT_CONTEXT: Kd, Fluorescein conjugate; peristeric site
pKd: −log10 of the molar value.
VALUE_KIND: pKd

>>> print(df.to_string())
                                   compound  observed_measurement
0  CC(C)C[C@H](NC(=O)CN)C(=O)O [Gly-Leu, Gly-Leu dipeptide]                  4.03

----------
- TARGET_OF_ASSAY: E. coli arabinose binding protein variant C64A/D257C, fluorophore conjugate (Escherichia coli, UniProt P02924, C87A/D280C)
- Construct: initiator methionine (N); Gly-Ser-Gly-(His)n or Gly-Ser-(His)n (n = 5, 6 or 10) (C); made in house; host or cells: E. coli BL21-DE3
- Sequence (P02924 24-329 C87A/D280C): as the sequence (P02924 24-329 C87A/L321C) above, with D257C, C298L counted along it
- TEST: Fluorimetric titration of fluorophore conjugates
- MEASUREMENT_CONTEXT: JPW4039 conjugate, allosteric site
- Source text: Molecular Cloning. […] Additionally the sequence of Fe(III) BP was mutated by substitution of Glu57 with Asp to raise the Kd to a concentration range conveniently measured using Fe(III) citrate. […] Fluorimetry. […] Fluorescence emission spectra were acquired with excitation and emission slit widths of 4 and 8 nm, respectively. […] Analyte affinity measurements. […] The emission wavelength monitored was that of maximum difference in intensity between the ligand-free and bound states. […]
VALUE_KIND: Kd (µM)

In [3]: df
Out[3]:
                                   compound  observed_measurement
0  OC1OC[C@H](O)[C@H](O)[C@H]1O (stereo partly shown) [arabinose]                    90
